procedure text: Stability in human CEM cell extract assessed as hydrolysis half life at pH 6.9
Format: ADME, CCRF-CEM
run parameters: CEM cell extract
Consider the following compounds and their measured half-life readings.
readout type: half-life (h)

compound="Cc1cn([C@H]2C=C[C@@H](COP3(=O)OCc4cc(CCC(=O)N[C@@H](C)C(=O)OC(C)(C)C)ccc4O3)O2)c(=O)[nH]c1=O (some centres undefined)" experimental_result=6.8
compound="COC(=O)[C@@H](C)NC(=O)CCc1ccc2c(c1)COP(=O)(OC[C@@H]1C=C[C@H](n3cc(C)c(=O)[nH]c3=O)O1)O2 (some centres undefined)" experimental_result=6.2
compound="Cc1cn([C@H]2C=C[C@@H](COP3(=O)OCc4cc(CCC(=O)N5CCC[C@H]5C(=O)OCc5ccccc5)ccc4O3)O2)c(=O)[nH]c1=O (some centres undefined)" experimental_result=0.4
compound="Cc1cn([C@H]2C=C[C@@H](COP3(=O)OCc4cc(CCC(=O)NCC(=O)OCc5ccccc5)ccc4O3)O2)c(=O)[nH]c1=O (some centres undefined)" experimental_result=4.8
compound="Cc1cn([C@H]2C=C[C@@H](COP3(=O)OCc4cc(CCC(=O)N[C@@H](C)C(=O)O)ccc4O3)O2)c(=O)[nH]c1=O (some centres undefined)" experimental_result=7
compound="COC(=O)CNC(=O)CCc1ccc2c(c1)COP(=O)(OC[C@@H]1C=C[C@H](n3cc(C)c(=O)[nH]c3=O)O1)O2 (some centres undefined)" experimental_result=4.5
compound="COC(=O)[C@@H]1CCCN1C(=O)CCc1ccc2c(c1)COP(=O)(OC[C@@H]1C=C[C@H](n3cc(C)c(=O)[nH]c3=O)O1)O2 (some centres undefined)" experimental_result=1.1
compound="Cc1cn([C@H]2C=C[C@@H](COP3(=O)OCc4cc(CCC(=O)N[C@@H](C)C(=O)OCc5ccccc5)ccc4O3)O2)c(=O)[nH]c1=O (stereo in doubt; form 2)" experimental_result=0.5
compound="COC(=O)[C@H](C)NC(=O)CCc1ccc2c(c1)COP(=O)(OC[C@@H]1C=C[C@H](n3cc(C)c(=O)[nH]c3=O)O1)O2 (some centres undefined)" experimental_result=1.1
